meta.source: patent US20250122190A1

- Target Desc: hTRPC5-T478C (Homo sapiens)
- Sequence (Q9UL62 1-973): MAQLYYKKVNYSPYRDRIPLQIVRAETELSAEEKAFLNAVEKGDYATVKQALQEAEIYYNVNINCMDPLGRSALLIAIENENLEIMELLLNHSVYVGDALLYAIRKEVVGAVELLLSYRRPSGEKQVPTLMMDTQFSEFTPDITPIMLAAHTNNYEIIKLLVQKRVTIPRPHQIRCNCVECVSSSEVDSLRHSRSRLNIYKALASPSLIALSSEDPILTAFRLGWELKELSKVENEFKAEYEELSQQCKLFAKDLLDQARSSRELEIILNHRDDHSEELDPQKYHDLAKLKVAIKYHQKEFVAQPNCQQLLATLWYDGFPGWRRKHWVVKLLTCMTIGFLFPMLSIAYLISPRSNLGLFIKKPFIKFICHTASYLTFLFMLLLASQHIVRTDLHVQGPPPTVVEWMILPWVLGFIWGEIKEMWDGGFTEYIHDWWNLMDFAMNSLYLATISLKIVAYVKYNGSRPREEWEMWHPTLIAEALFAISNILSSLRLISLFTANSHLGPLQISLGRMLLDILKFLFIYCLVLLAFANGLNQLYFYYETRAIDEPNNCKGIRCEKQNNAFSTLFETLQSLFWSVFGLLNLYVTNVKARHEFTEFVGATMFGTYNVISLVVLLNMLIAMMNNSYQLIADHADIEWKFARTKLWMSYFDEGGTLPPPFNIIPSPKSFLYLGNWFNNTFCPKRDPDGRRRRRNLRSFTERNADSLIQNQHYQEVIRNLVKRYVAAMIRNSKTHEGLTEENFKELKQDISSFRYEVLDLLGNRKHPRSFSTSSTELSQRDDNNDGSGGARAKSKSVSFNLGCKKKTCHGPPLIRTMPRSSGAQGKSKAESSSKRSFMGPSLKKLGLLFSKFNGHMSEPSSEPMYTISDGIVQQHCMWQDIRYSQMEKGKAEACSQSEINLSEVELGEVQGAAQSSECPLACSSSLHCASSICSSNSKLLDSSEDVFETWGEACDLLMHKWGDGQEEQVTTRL
- Protocol Details: hTRPC5-T478C patch clamp IC50 assay
- Type: cell-based
- Condition Label: hTRPC5-T478C-HEK cells, whole-cell patch clamp, Englerin A agonist
- Method: Cell culture: hTRPC5-T478C-HEK cells were cultured in a humid environment in 5% CO2 at 37° C. […] Whole-cell patch clamping was performed at room temperature. The electrical signals recorded using an EPC 10 USB amplifier (HEKA Elektronik, Germany) were low-pass filtered at 3 kHz and finally recorded in PatchMaster 2×90.5 software (HEKA Elektronik, Germany). […]
Measured Quantity: IC50 (nM)
Numbers only here, please. The scale is nM.

// worked examples, IC50 included
COCc1nc2c(c(Oc3ccc(F)cc3C(F)(F)F)n1)CCN(c1cn[nH]c(=O)c1Cl)C2: 191
Nc1nc2c(c(Sc3ccc(F)cc3C(F)(F)F)n1)CCN(c1cn[nH]c(=O)c1Cl)C2: 15.3

-- ask What measured IC50 goes with O=c1[nH]ncc(N2CCc3c(ncnc3Oc3ccc(F)cc3Br)C2)c1Cl ?
-- reply 91.4

-- ask // next record C=C(c1ccc(F)cc1C(F)(F)F)c1ncnc2c1CCN(c1cn[nH]c(=O)c1Cl)C2
-- reply 89.4

-- ask And what about the compound CC(F)(F)c1cc(F)ccc1Oc1ncnc2c1CCN(c1cn[nH]c(=O)c1Cl)C2 ?
-- reply 196

-- ask Next entry: O=c1[nH]ncc(N2CCc3c(ncnc3Sc3ccc(F)cc3C(F)(F)F)C2)c1Cl
-- reply 115

-- ask Next compound up: O=c1[nH]ncc(N2CCc3c(nc(CO)nc3Sc3ccc(F)cc3C(F)(F)F)C2)c1Cl
-- reply 16.6

-- ask Further, for O=c1[nH]ncc(N2CCc3c(ncnc3Oc3ccc(F)cc3C(F)(F)F)C2)c1Br ?
-- reply 304
